Recorded measurements of IC50, one per entry
Experimental Target: Mitogen-activated protein kinase 14 (Homo sapiens)
Sequence (Q16539 whole entry): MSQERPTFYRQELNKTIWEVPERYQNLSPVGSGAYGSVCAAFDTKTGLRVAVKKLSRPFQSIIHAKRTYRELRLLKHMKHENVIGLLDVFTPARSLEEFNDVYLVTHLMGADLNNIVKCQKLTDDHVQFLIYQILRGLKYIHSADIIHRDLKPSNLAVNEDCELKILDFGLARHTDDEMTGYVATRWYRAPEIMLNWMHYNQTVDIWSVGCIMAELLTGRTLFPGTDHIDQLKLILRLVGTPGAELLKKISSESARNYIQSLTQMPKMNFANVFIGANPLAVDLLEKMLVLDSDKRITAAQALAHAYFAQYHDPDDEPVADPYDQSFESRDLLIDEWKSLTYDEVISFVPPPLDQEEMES
Method Description: Inhibitory activity against Mitogen-activated protein kinase p38 alpha 2 expressed in Escherichia coli.
In your response, the unit should come after the numeric value.

For orientation, consider the following solved cases.
Compound	IC50
CC(C)(C)c1cc(NC(=O)Nc2cc(Br)cc(Br)c2)no1	0.71 µM
CC(C)(C)Cc1cc(NC(=O)Nc2cccc(Cl)c2Cl)on1	0.12 µM
CCC(C)(C)c1cc(NC(=O)Nc2cccc(Cl)c2Cl)on1	0.12 µM

Query: Fill in: IC50 on Mitogen-activated protein kinase 14 (Homo sapiens), entry Cc1c(C(C)C)noc1NC(=O)Nc1cccc(Cl)c1Cl
Result: 0.92 µM

Query: Please respond with reported IC50 (system Mitogen-activated protein kinase 14 (Homo sapiens)) for CC(C)(C)c1cc(NC(=O)Nc2ccc(F)cc2)no1 .
Result: 0.19 µM

Query: Identify measured IC50 obtained with Mitogen-activated protein kinase 14 (Homo sapiens) for CC(C)(C)c1cc(NC(=O)Nc2cccc(Cl)c2Cl)cs1 .
Result: 0.16 µM

Query: Look up and report IC50, with Mitogen-activated protein kinase 14 (Homo sapiens) as system, for CC(C)(C)c1cc(NC(=O)Nc2cccc(Cl)c2Cl)no1
Result: 0.058 µM

Query: Return reported IC50 for target or system Mitogen-activated protein kinase 14 (Homo sapiens), item CCCCc1cc(NC(=O)Nc2cccc(Cl)c2Cl)on1 .
Result: 1.1 µM

Query: Provide IC50, system Mitogen-activated protein kinase 14 (Homo sapiens), entry CC(C)(C)c1cc(NC(=O)Nc2cccc(Cl)c2Cl)on1
Result: 0.036 µM

Query: Enter recorded IC50 with Mitogen-activated protein kinase 14 (Homo sapiens) for CC(C)c1cc(NC(=O)Nc2cccc(Cl)c2Cl)on1 here.
Result: 0.29 µM

Query: Give IC50 for this entry on Mitogen-activated protein kinase 14 (Homo sapiens): CC(C)(C)c1cc(NC(=O)Nc2ccc(Cl)c(Cl)c2)on1
Result: 0.22 µM

Query: Give reported IC50 for O=C(Nc1cc(C2CCC2)no1)Nc1cccc(Cl)c1Cl (Mitogen-activated protein kinase 14 (Homo sapiens))
Result: 0.37 µM

Query: Look up and report IC50, with Mitogen-activated protein kinase 14 (Homo sapiens) as system, for CC(C)(C)c1cc(NC(=O)Nc2ccc(C(F)(F)F)cc2)on1
Result: 0.2 µM

Query: Would you please give the reported IC50 of Cc1cc(F)ccc1-c1cc(N(C(N)=O)c2c(Cl)cccc2Cl)ccc1CO with Mitogen-activated protein kinase 14 (Homo sapiens)?
Result: 0.002 µM

Query: // fetch IC50 for CC(C)(C)c1ccc(NC(=O)Nc2cccc(Cl)c2Cl)s1 ; system: Mitogen-activated protein kinase 14 (Homo sapiens)
Result: 0.12 µM

Query: State, for Mitogen-activated protein kinase 14 (Homo sapiens), measured IC50 of the molecule listed here: CC(C)(C)c1cc(NC(=O)Nc2ccc(Cl)cc2)on1
Result: 0.26 µM

###

// values below are reported inhibition
Experimental Target: Mitogen-activated protein kinase 14 (Homo sapiens)
Method Description: Inhibitory activity against Mitogen-activated protein kinase p38 alpha 2 (expressed Escherichia coli) at concentration of 500 nM
The answer is to be given in %; state only the numeric part.

Below, 4 molecules whose answers are already recorded.
Compound	Experimental Target	Recorded Number
Cc1c(C(C)C)noc1NC(=O)Nc1cccc(Cl)c1Cl	Mitogen-activated protein kinase 14 (Homo sapiens)	34
CC(=O)Nc1ccc(NC(=O)Nc2cc(C(C)(C)C)no2)cc1	Mitogen-activated protein kinase 14 (Homo sapiens)	20
CC(=O)Nc1cccc(NC(=O)Nc2cc(C(C)(C)C)on2)c1	Mitogen-activated protein kinase 14 (Homo sapiens)	18
O=C(Nc1cc(C2CCC2)no1)Nc1cccc(Cl)c1Cl	Mitogen-activated protein kinase 14 (Homo sapiens)	57

Query: Could you please provide reported inhibition for CC(=O)Nc1ccc(NC(=O)Nc2cc(C(C)(C)C)on2)cc1 ? Thanks!
Result: 14

Query: Identify the reported inhibition for the following entry. O=C(Nc1cc(C23CC4CC(CC(C4)C2)C3)no1)Nc1cccc(Cl)c1Cl
Result: 9

Query: Tell me inhibition reported for CC(C)(C)c1cc(NC(=O)Nc2cccc(Cl)c2Cl)no1
Result: 88

Query: Give the reported value of inhibition for this record: CC(=O)Nc1cccc(NC(=O)Nc2cc(C(C)(C)C)no2)c1
Result: 11

Query: Look up and report measured inhibition for this entry: CC(C)c1cc(NC(=O)Nc2cccc(Cl)c2Cl)on1
Result: 62

Query: Quickly give me recorded inhibition for CC(C)(C)c1cc(NC(=O)Nc2ccc(Cl)cc2C(F)(F)F)no1
Result: 9

Query: Annotate the molecule CC(C)(C)Cc1cc(NC(=O)Nc2cccc(Cl)c2Cl)on1 with its measured inhibition.
Result: 81

Query: Supply recorded inhibition for CCC(C)(C)c1cc(NC(=O)Nc2cccc(Cl)c2Cl)on1 here.
Result: 83

Query: Please report the measured inhibition for CC(C)(C)c1cc(NC(=O)Nc2ccc(F)cc2)no1
Result: 74

Query: # return recorded inhibition for input Cc1c(C(C)(C)C)noc1NC(=O)Nc1cccc(Cl)c1Cl
Result: 18

Query: Quote inhibition reported for CC(C)(C)c1cc(NC(=O)Nc2ccc(Cl)c(Cl)c2)on1 please.
Result: 62
